- Tested on: compound 48/80-induced lethality
- Assay: Protection of rats from compound 48/80-induced lethality
- Format: in vivo, rats of an inbred Wistar strain
- Condition info: Rattus norvegicus, 4 h, read-out: Compound 48/80 lethality test in rats ED50, s.c. or p.o. 1 h before compound 48/80 0.5 mg/kg i.v.; protection of 50% of animals, survival after 4 hours
Quantity kind: log10 ED50 (log10 of the value in mg/kg)
Answers are given as log10 of ED50 in mg/kg.

Per the records, this compound ( COc1ccc(CCN2CCC(Cc3nc4ccccc4n3Cc3ccccc3F)CC2)cc1 [Compound 515] ) has log10 ED50 equal to -0.80

Per the records, this compound ( Fc1ccc(Cn2c(CC3CCN(CCc4cccs4)CC3)nc3cccnc32)cc1 [Compound 117] ) has log10 ED50 equal to -2.00

Per the records, this compound ( Fc1ccc(Cn2c(CC3CCN(CCn4c(=S)[nH]c5ccccc54)CC3)nc3ccccc32)cc1 [Compound 493] ) has log10 ED50 equal to -1.10

Per the records, this compound ( Fc1ccc(Cn2c(CC3CCN(Cc4cn5ccccc5n4)CC3)nc3ccccc32)cc1 [Compound 184] ) has log10 ED50 equal to -1.70

Per the records, this compound ( CCOCCN1CCC(Cc2nc3cccnc3n2Cc2ccc(F)cc2)CC1 [Compound 126] ) has log10 ED50 equal to -1.40

Per the records, this compound ( Fc1ccc(Cn2c(CC3CCN(Cc4cn5cccnc5n4)CC3)nc3ccccc32)cc1 [Compound 183] ) has log10 ED50 equal to -2.00

Per the records, this compound ( O=C(NCCN1CCC(Cc2nc3ccccc3n2Cc2ccc(F)cc2)CC1)c1cc(O)c2ccccc2n1 [Compound 444] ) has log10 ED50 equal to -0.80

Per the records, this compound ( Cc1ncsc1CCN1CCC(Cc2nc3ccccc3n2Cc2ccc(F)cc2)CC1 [Compound 182] ) has log10 ED50 equal to -1.40

###

Kindly supply the reported ED50 values for the records listed here.
- System: compound 48/80-induced lethality
- Assay: Protection of rats from compound 48/80-induced lethality
- Format: in vivo, rats of an inbred Wistar strain
- Condition info: Rattus norvegicus, 4 h, read-out: Compound 48/80 lethality test in rats ED50, s.c. or p.o. 1 h before compound 48/80 0.5 mg/kg i.v.; protection of 50% of animals, survival after 4 hours
Write the answer as a number in mg/kg, unit excluded.

Per the records, this compound ( Nc1ccccc1C(=O)NCCN1CCC(Cc2nc3cccnc3n2Cc2ccco2)CC1 ) has ED50 equal to 0.02

Per the records, this compound ( CC(C)NC(=O)CCN1CCC(Cc2nc3ccccc3n2Cc2ccc(F)cc2)CC1 ) has ED50 equal to 0.02

Per the records, this compound ( Cc1nc2ccccn2c(=O)c1CCN1CCC(Cc2nc3cccnc3n2Cc2ccccn2)CC1 ) has ED50 equal to 0.08

Per the records, this compound ( S=C=NCCN1CCC(Cc2nc3ccccc3n2Cc2cccs2)CC1 ) has ED50 equal to 0.04

Per the records, this compound ( OCCN1CCC(Cc2nc3cccnc3n2Cc2ccc(F)cc2)CC1 ) has ED50 equal to 0.16

###

Kindly supply the reported ED50 values for the records listed here.
- Test system: compound 48/80-induced lethality
- Assay: Protection of rats from compound 48/80-induced lethality
- Assay type: in vivo, rats of an inbred Wistar strain
- Condition info: Rattus norvegicus, 4 h, read-out: Compound 48/80 lethality test in rats ED50, s.c. or p.o. 1 h before compound 48/80 0.5 mg/kg i.v.; protection of 50% of animals, survival after 4 hours
- Experimental: Protection of rats from compound 48/80-induced lethality The protection from compound 48/80-induced lethal circulatory collapse appears to be a simple way of evaluating quantitatively the antihistaminic activity of test compounds. Male rats of an inbred Wistar strain, weighing 240-260 g were used in the experiment. After overnight starvation the rats were transferred to conditioned laboratories (temp.=21±1° C., relative humidity=65+5%). […]
Write the answer as a number in mg/kg, unit excluded.

Per the records, this compound ( Fc1ccc(Cn2c(CC3CCN(Cc4ccccc4)CC3)nc3cccnc32)cc1 ) has ED50 equal to 0.04

Per the records, this compound ( Fc1ccc(Cn2c(CC3CCN(Cc4ccccc4)CC3)nc3ncccc32)cc1 ) has ED50 equal to 0.08

Per the records, this compound ( Cc1ccc(Cn2c(CC3CCNCC3)nc3ccccc32)cc1 ) has ED50 equal to 0.02

Per the records, this compound ( OCCN1CCC(Oc2nc3ccccc3n2Cc2ccc(F)cc2)CC1 ) has ED50 equal to 0.01

Per the records, this compound ( CC(=O)N(C)c1ccccc1C(=O)NCCN1CCC(Cc2nc3ccccc3n2Cc2ccco2)CC1 ) has ED50 equal to 0.16

Per the records, this compound ( CN(CCN1CCC(Cc2nc3ccccc3n2Cc2ccc(F)cc2)CC1)c1ncccn1 ) has ED50 equal to 0.02

Per the records, this compound ( Fc1ccc(Cn2c(CC3CCN(CCSc4ccccc4)CC3)nc3cccnc32)cc1 ) has ED50 equal to 0.08

Per the records, this compound ( CCn1nnn(CCN2CCC(Cc3nc4ccccc4n3Cc3ccc(F)cc3)CC2)c1=O ) has ED50 equal to 0.01

Per the records, this compound ( O=C(Cc1ccsc1)NCCN1CCC(Cc2nc3ccccc3n2Cc2ccc(F)cc2)CC1 ) has ED50 equal to 0.02
